Data credit: patent US20160176924A1

# target: HIS-PDZ2 protein (PSD-95 PDZ2, residues 155-249, with tag …) (human, UniProt P78352 155-249)
# assayMethodText: FP competition, fluorescent NR2B probe
Square brackets hold non-standard residues; d marks the D form. Ends that are not written are not given here. * marks the point of attachment. (naphthalen-2-yl)ethyl = c1ccc2cc(CC*)ccc2c1; Cyclohexylmethyl = C1CCC(C*)CC1; NMeE = CN[C@@H](CCC(=O)O)C(=O)O; cyclohexylethyl = C1CCC(CC*)CC1; Bn = c1ccc(C*)cc1
parameter: Ki

binder	result
Cyclohexylmethyl-ETAV [N-Cyclohexylmethyl-ETAV (55)]	1300 nM

For every listed record, write down its Ki.
1. [NMeE]TAV (also called N-Methyl-ETAV (40)) [EMeTAV (40)]
2. ETAV (not fully specified, The printed formula C25H37F2N4O8 points to an ethyl spacer, the printed name says propyl) [N-(3,4-Difluorophenyl)propyl-ETAV (62)]
3. Phenylethyl-ETAV [N-Phenylethyl-ETAV (59)]
4. cyclohexylethyl-ETAV [N-Cyclohexylethyl-ETAV (56)]
5. ETAV (not fully specified, The printed formula C25H37Cl2N4O8 and the comparison with 59 point to an ethyl spacer, the printed name says propyl) [N-(3,4-Dichlorophenyl)propyl-ETAV (61)]
6. Bn-ETAV [N-Benzyl-ETAV (58)]
7. phenylpropyl-ETAV [N-Phenylpropyl-ETAV (60)]

Out:
8900 nM
1000 nM
1600 nM
450 nM
1100 nM
5200 nM
3100 nM

For every listed record, write down its Ki.
1. {(naphthalen-2-yl)ethyl}-ETAV [N-(Naphtalene-2-yl)ethyl-ETAV (63)]
2. Et-ETAV [N-Ethyl-ETAV (52)]
3. butyl-ETAV [N-Butyl-ETAV (54)]

Out:
1: 950 nM; 2: 9600 nM; 3: 4000 nM
